This collection of values is drawn from the supplement of paper PMC8024199.

- System: Ba/F3 P210-BCR-ABL1 RUNX1-/mut (mouse)
- ASSAY DETAILS: drug sensitivity score (DSS) (DSS score); higher = more sensitive (stronger growth inhibition); extreme values may be limits of the assay
Recorded drug sensitivity score split into classes lo (below 0.7), mid (0.7 to below 10), hi (10 or more)

1. CCc1cncnc1N1CCN(Cc2nc3ccc(C(F)(F)F)cc3[nH]2)CC1; mid
2. CC[C@@H]1CN(C(=O)NCC(F)(F)F)C[C@@H]1c1cnc2cnc3[nH]ccc3n12 [Upadacitinib]; lo
3. OC[C@H]1O[C@@H](n2cnc3c2N=CNC[C@H]3O)C[C@@H]1O [Pentostatin]; lo
4. Cc1cc(Nc2ncc(Cl)c(Nc3ccccc3S(=O)(=O)C(C)C)n2)c(OC(C)C)cc1C1CCNCC1 [Ceritinib]; mid
5. NC(=O)N1CCC(CC(=O)N2CCC([C@H]3c4ncc(Br)cc4CCc4cc(Cl)cc(Br)c43)CC2)CC1 [Lonafarnib]; hi
6. Cc1cnc(-c2ccccc2C(C)C)nc1NCc1ccc(-n2ccnn2)cc1 [ML323]; mid
7. CC(C)C[C@H](NC(=O)[C@H](CCc1ccccc1)NC(=O)CN1CCOCC1)C(=O)N[C@@H](Cc1ccccc1)C(=O)N[C@@H](CC(C)C)C(=O)[C@@]1(C)CO1 [Carfilzomib]; hi
8. CC[C@]1(O)C[C@H]2CN(CCc3c([nH]c4ccccc34)[C@@](C(=O)OC)(c3cc4c(cc3OC)N(C=O)[C@H]3[C@@](O)(C(=O)OC)[C@H](OC(C)=O)[C@]5(CC)C=CCN6CC[C@]43[C@@H]65)C2)C1 [Vincristine]; hi
9. CC(C)[C@H]1C(=O)N[C@@H](CCCNC(=N)N)C(=O)NCC(=O)N[C@@H](CC(=O)O)C(=O)N[C@H](Cc2ccccc2)C(=O)N1C [Cilengitide]; lo
10. Cn1cncc1[C@@](N)(c1ccc(Cl)cc1)c1ccc2c(c1)c(-c1cccc(Cl)c1)cc(=O)n2C [Tipifarnib]; hi
11. Cc1ccc(-c2cc(C(F)(F)F)nn2-c2ccc(S(N)(=O)=O)cc2)cc1 [Celecoxib]; lo
12. COc1nc(N)nc2c1ncn2[C@@H]1O[C@H](CO)[C@@H](O)[C@@H]1O [Nelarabine]; mid

---

- Tested on: Ba/F3 P210-BCR-ABL1 RUNX1wt/wt control (mouse)
- ASSAY DETAILS: drug sensitivity score (DSS) (DSS score); higher = more sensitive (stronger growth inhibition); extreme values may be limits of the assay
PROPERTY MEASURED: drug sensitivity score

1. CN(C)CCOc1ccc(/C(=C(/CCCl)c2ccccc2)c2ccccc2)cc1; 4.85
2. C=CCn1c(=O)c2cnc(Nc3ccc(N4CCN(C)CC4)cc3)nc2n1-c1cccc(C(C)(C)O)n1; 19.1
3. CO[C@H]1C[C@@H]2CC[C@@H](C)[C@@](O)(O2)C(=O)C(=O)N2CCCC[C@H]2C(=O)O[C@H]([C@H](C)C[C@@H]2CC[C@@H](OP(C)(C)=O)[C@H](OC)C2)CC(=O)[C@H](C)/C=C(\C)[C@@H](O)[C@@H](OC)C(=O)[C@H](C)C[C@H](C)/C=C/C=C/C=C/1C; 0.15
4. CC(=O)[C@]1(O)Cc2c(O)c3c(c(O)c2[C@@H](O[C@H]2C[C@H](N)[C@H](O)[C@H](C)O2)C1)C(=O)c1ccccc1C3=O; 18.6
5. O=C(O)c1ccc2c(c1)nc(Nc1cccc(Cl)c1)c1ccncc12; 4.05
6. COc1cc2nccc(Oc3ccc(NC(=O)NC4CC4)c(Cl)c3)c2cc1C(N)=O; 0
7. Cc1[nH]nc(C(F)(F)F)c1Cc1sc2c(c1C(=O)N1C[C@](C)(O)CO1)c(=O)n(C)c(=O)n2C(C)C; 0
8. CCn1c(=O)c(-c2ccc(Cl)cc2Cl)cc2cnc(Nc3ccc(N4CCNCC4)c(F)c3)nc21; 8.95
9. COc1cccc2c1C(=O)c1c(O)c3c(c(O)c1C2=O)C[C@@](O)(C(=O)CO)C[C@@H]3O[C@H]1C[C@H](N)[C@H](O)[C@H](C)O1; 10.5
10. CC(C)(C)NC(=O)[C@H]1CC[C@H]2[C@@H]3CC[C@H]4NC(=O)C=C[C@]4(C)[C@H]3CC[C@]12C [Finasteride]; 0
11. O=C(Nc1cc(Oc2cc(F)c(NC(=O)C3(C(=O)Nc4ccc(F)cc4)CC3)cc2F)ccn1)C1CC1; 5.45
12. CO[C@H](C(=O)[C@@H](O)[C@@H](C)O)[C@@H]1Cc2cc3cc(O[C@H]4C[C@@H](O[C@@H]5C[C@@H](O)[C@H](O)[C@@H](C)O5)[C@H](O)[C@@H](C)O4)c(C)c(O)c3c(O)c2C(=O)[C@H]1O[C@H]1C[C@@H](O[C@@H]2C[C@@H](O)[C@@H](O[C@@H]3C[C@](C)(O)[C@H](O)[C@@H](C)O3)[C@@H](C)O2)[C@H](O)[C@@H](C)O1; 3
13. Nc1ccn([C@@H]2O[C@H](CO)[C@@H](O)C2(F)F)c(=O)n1; 16.4
14. COc1nc(N)nc2c1ncn2[C@@H]1O[C@H](CO)[C@@H](O)[C@@H]1O; 0
15. C=CC(=O)Nc1cc2c(Nc3ccc(F)c(Cl)c3)ncnc2cc1OCCCN1CCOCC1; 5.2
16. NS(=O)(=O)OC[C@@H]1C[C@@H](n2ccc3c(N[C@H]4CCc5ccccc54)ncnc32)C[C@@H]1O; 7.65
17. Cc1noc2c1-c1ccccc1C(c1ccc(Cl)cc1)=N[C@H]2CC(N)=O; 14
18. CNC(=O)CN1CCC(Oc2cc3c(Nc4cccc(Cl)c4F)ncnc3cc2OC)CC1; 0
19. Cc1ccc(NC(=O)c2ccc(CN3CCN(C)CC3)cc2)cc1Nc1nc(-c2cccnc2)cs1; 5.65
20. C[C@@H](C(=O)O)c1ccc(-c2ccccc2)c(F)c1; 0
21. NC(=O)N1CCC(CC(=O)N2CCC([C@H]3c4ncc(Br)cc4CCc4cc(Cl)cc(Br)c43)CC2)CC1; 8.2
22. Cn1nccc1Nc1nccc(-c2ccn([C@H](CO)c3ccc(Cl)c(F)c3)c(=O)c2)n1; 0.05
23. CC(C)(O)CNc1nc(Nc2ccnc(C(F)(F)F)c2)nc(-c2cccc(C(F)(F)F)n2)n1; 0
24. CC1(C)CCC(CN2CCN(c3ccc(C(=O)NS(=O)(=O)c4ccc(NCC5CCOCC5)c([N+](=O)[O-])c4)c(Oc4cnc5[nH]ccc5c4)c3)CC2)=C(c2ccc(Cl)cc2)C1; 1.4
25. COC(=O)c1ccc2c(c1)[nH]c1ncnc(NCCCN3CCCCC3)c12; 0
26. CC(C)(C)c1nc(-c2cccc(NS(=O)(=O)c3c(F)cccc3F)c2F)c(-c2ccnc(N)n2)s1; 2.2
27. CC(C)N(C[C@H]1O[C@@H](n2cnc3c(N)ncnc32)[C@H](O)[C@@H]1O)[C@H]1C[C@@H](CCc2nc3cc(C(C)(C)C)ccc3[nH]2)C1; 0

---

- Tested on: Ba/F3 P210-BCR-ABL1 RUNX1wt/wt control (mouse)
- ASSAY DETAILS: drug sensitivity score (DSS) (DSS score); higher = more sensitive (stronger growth inhibition); extreme values may be limits of the assay
Each entry below carries its recorded drug sensitivity score.
PROPERTY MEASURED: drug sensitivity score

1. Cc1cc(-c2nc(-c3ccc(OC(F)(F)F)cc3)no2)nn1Cc1ccnc(N2CCN(C3CC3)CC2)c1; 4.9
2. CN(c1ncccc1CNc1nc(Nc2ccc3c(c2)CC(=O)N3)ncc1C(F)(F)F)S(C)(=O)=O; 4.8
3. CC[C@H](NC(=O)[C@H](C)NC)C(=O)N1C[C@@H](O)C[C@H]1Cc1c(-c2[nH]c3cc(F)ccc3c2C[C@@H]2C[C@H](O)CN2C(=O)[C@H](CC)NC(=O)[C@H](C)NC)[nH]c2cc(F)ccc12; 6.15

---

- Test system: Ba/F3 P210-BCR-ABL1 RUNX1-/mut (mouse)
- ASSAY DETAILS: drug sensitivity score (DSS) (DSS score); higher = more sensitive (stronger growth inhibition); extreme values may be limits of the assay
PROPERTY MEASURED: drug sensitivity score

1. CC(C)c1cc(-c2n[nH]c(=O)n2-c2ccc3c(ccn3C)c2)c(O)cc1O [Ganetespib]; 23.6
2. COc1cc(Br)c(Nc2nc(-c3c(C)nc4ncccn34)cs2)c(Br)c1 [PTC-209]; 7.8
3. Cc1ccc(NS(=O)(=O)c2cccc(C#N)c2)c2[nH]cc(C#N)c12 [E7820]; 5.45
4. COc1ccc2[nH]cc(/C=C3\C(=O)Nc4ccc(NC(=O)CCN5CCCCC5)cc43)c2c1; 15.2
5. O=C1CN2Cc3c(ccc(Cl)c3Cl)N=C2N1 [Anagrelide]; 0
6. Cn1cc(-c2ccc(F)c(C(F)(F)F)c2)nc1C1CCN(c2ncnc3[nH]ncc23)CC1; 0.7
7. CN1CCN(c2ccc(C(=O)Nc3n[nH]c4ccc(Cc5cc(F)cc(F)c5)cc34)c(NC3CCOCC3)c2)CC1 [Entrectinib]; 0.65
